System: human LDL
Test: Modification (peroxidation) of human LDL by endothelial cells from the rabbit aorta, MDA production
Type: cell-based
Conditions: inhibition of human LDL oxidation induced by endothelial cells (rabbit aorta), 24 hours, MDA production
Quantity name: IC50 (nM)

A = CC(C)(Oc1ccc(CCOc2cc(C(C)(C)C)c(O)c(C(C)(C)C)c2)cc1)C(=O)O
B = CC(C)(Oc1ccc(CCSc2cc(C(C)(C)C)c(O)c(C(C)(C)C)c2)cc1)C(=O)O
C = CC(C)(Sc1cc(C(C)(C)C)c(O)c(C(C)(C)C)c1)Sc1cc(C(C)(C)C)c(O)c(C(C)(C)C)c1 [PROBUCOL, probucol, reference compound]
QUERY: Using the list above, order everything by rising IC50. Give the labels in the order specified.
RESULT: B, A, C
(B: 3 nM, A: 7 nM, C: 4000 nM)
